Biological target: SMARCA2 (Homo sapiens, UniProt P51531)
Construct: endogenous in cells; host or cells: HT1080 (CRISPR HiBiT knock-in clone, generated in house)
Sequence (P51531 whole entry): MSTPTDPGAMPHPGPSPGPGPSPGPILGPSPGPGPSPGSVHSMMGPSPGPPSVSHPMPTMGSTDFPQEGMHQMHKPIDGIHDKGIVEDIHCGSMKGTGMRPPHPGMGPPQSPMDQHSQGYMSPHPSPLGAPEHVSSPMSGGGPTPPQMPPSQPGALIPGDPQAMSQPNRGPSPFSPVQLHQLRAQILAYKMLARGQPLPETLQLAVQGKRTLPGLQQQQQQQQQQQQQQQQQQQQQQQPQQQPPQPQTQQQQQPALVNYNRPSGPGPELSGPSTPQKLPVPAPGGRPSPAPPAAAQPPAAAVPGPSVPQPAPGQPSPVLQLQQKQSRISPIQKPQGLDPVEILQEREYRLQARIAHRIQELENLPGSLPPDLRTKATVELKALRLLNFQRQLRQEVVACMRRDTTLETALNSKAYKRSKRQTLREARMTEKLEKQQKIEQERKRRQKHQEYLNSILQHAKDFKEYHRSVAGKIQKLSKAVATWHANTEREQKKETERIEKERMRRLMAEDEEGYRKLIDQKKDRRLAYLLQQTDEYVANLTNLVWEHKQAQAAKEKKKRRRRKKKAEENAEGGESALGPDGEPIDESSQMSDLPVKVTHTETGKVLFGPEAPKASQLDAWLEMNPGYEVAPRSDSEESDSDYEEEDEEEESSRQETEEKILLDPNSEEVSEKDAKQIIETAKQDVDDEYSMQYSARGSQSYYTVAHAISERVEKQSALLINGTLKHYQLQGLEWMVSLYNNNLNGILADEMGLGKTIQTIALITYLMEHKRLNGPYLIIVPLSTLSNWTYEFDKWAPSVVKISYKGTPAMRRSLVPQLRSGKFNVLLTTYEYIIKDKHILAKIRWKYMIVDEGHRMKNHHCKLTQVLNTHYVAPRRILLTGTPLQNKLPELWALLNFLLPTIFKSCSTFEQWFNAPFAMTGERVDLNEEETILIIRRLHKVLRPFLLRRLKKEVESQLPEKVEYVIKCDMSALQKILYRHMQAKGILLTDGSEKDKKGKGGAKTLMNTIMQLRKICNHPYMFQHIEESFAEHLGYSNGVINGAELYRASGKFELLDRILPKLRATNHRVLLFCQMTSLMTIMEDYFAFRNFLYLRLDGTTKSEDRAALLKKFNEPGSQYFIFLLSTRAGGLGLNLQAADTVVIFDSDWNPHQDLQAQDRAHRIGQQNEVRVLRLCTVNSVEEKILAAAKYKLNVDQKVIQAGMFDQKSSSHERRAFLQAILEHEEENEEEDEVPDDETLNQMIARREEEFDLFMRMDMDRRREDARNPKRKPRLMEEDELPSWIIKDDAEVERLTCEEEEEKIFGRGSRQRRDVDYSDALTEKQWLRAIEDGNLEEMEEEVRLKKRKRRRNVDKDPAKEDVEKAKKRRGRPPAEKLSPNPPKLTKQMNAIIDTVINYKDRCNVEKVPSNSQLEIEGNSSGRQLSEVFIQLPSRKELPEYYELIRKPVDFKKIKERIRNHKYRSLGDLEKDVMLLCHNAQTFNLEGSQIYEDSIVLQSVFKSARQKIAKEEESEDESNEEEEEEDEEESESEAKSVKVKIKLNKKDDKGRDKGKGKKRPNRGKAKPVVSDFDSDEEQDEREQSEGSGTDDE
Assay: SMARCA2 HiBiT degradation assay (cellular)
Assay type: cell-based
Conditions: A549, 6 h incubation; Emax = amount of residual protein remaining in the cell following compound treatment; table head names A549

{"columns": ["molecule", "target_under_test", "unit_symbol", "Emax"],
 "data": [
  ["Nc1nnc(-c2ccccc2O)cc1N1CCC(C(=O)NCC2CCN(C(=O)CN3CCC(c4ccc(OC5CCC(=O)NC5=O)cc4)CC3)CC2)(c2ccccc2)CC1 (stereo not drawn)", "SMARCA2 (Homo sapiens, UniProt P51531)", "%", 28],
  ["Nc1nnc(-c2ccccc2O)cc1N1CCC(C(=O)NCC2CCN(C(=O)CCCN3CCC(c4ccc(NC5CCC(=O)NC5=O)cc4)CC3)CC2)(c2ccccc2)CC1 (stereo not drawn)", "SMARCA2 (Homo sapiens, UniProt P51531)", "%", 33],
  ["Nc1nnc(-c2cc(F)ccc2O)cc1OC1CCCN(c2ccc(N3CCN(C(=O)CCCCCCCCn4cc(CNc5cccc6c5C(=O)N(C5CCC(=O)NC5=O)C6=O)nn4)CC3)cc2)C1 (stereo not drawn)", "SMARCA2 (Homo sapiens, UniProt P51531)", "%", 52]
]}

---

Target: SMARCA2 (Homo sapiens, UniProt P51531)
Construct: endogenous in cells; host or cells: HT1080 (CRISPR HiBiT knock-in clone, generated in house)
Test: SMARCA2 HiBiT degradation assay (cellular)
Type: cell-based
Conditions: A549, 6 h incubation; Emax = amount of residual protein remaining in the cell following compound treatment; table head names A549

{"columns": ["compound", "unit_symbol", "Emax"],
 "data": [
  ["Nc1nnc(-c2ccccc2O)cc1N1CCC(C(=O)N2CC3(CCN(C(=O)CC4CCN(c5ccc6c(c5)C(=O)N(C5CCC(=O)NC5=O)C6=O)CC4)CC3)C2)(c2ccccc2)CC1 (stereo not drawn)", "%", 50],
  ["Nc1nnc(-c2ccccc2O)cc1O[C@H]1CCCN(c2ccc(N3CCN(CCCCC(=O)N4CCC(Cn5cc(COc6cccc7c6C(=O)N(C6CCC(=O)NC6=O)C7=O)nn5)CC4)CC3)cc2)C1 (mixture of isomers)", "%", 35],
  ["Nc1nnc(-c2ccccc2O)cc1N1CC2CCC(C1)N2c1cccc(CN2CCN(C(=O)C3CN(c4ccc5c(c4)C(=O)N(C4CCC(=O)NC4=O)C5=O)C3)CC2)c1 (racemic)", "%", 39]
]}

---

Target: SMARCA2 (Homo sapiens, UniProt P51531)
Construct: endogenous in cells; host or cells: HT1080 (CRISPR HiBiT knock-in clone, generated in house)
Test: SMARCA2 HiBiT degradation assay (cellular)
Format: cell-based
Conditions: 6 h incubation; HiBiT-tagged SMARCA2, luminescence read-out; table head names A549; read-out: HiBit A549 SMARCA2 IP (nM) 6 h
measured_attribute: DC50 (nM)

{"columns": ["compound", "measured_attribute", "endpoint_result"],
 "data": [
  ["Nc1nnc(-c2ccccc2O)cc1N1CCC(C(=O)NCC2CCN(C(=O)CN3CCC(c4ccc(NC5CCC(=O)NC5=O)cc4)CC3)CC2)(c2ccccc2)CC1 (centres unmarked)", "DC50", 102],
  ["Nc1nnc(-c2ccccc2O)cc1N1CCC(C(=O)N2CCC3(CC2)CN(C(=O)CN2CCC(c4ccc(NC5CCC(=O)NC5=O)cc4)CC2)CCO3)(c2ccccc2)CC1 (centres unmarked)", "DC50", 49],
  ["Nc1nnc(-c2ccccc2O)cc1N1CCC(C(=O)N2CCN(C(=O)C3CCN(c4ccc5c(c4)C(=O)N(C4CCC(=O)NC4=O)C5=O)CC3)CC2)(c2ccccc2)CC1 (centres unmarked)", "DC50", 31],
  ["Nc1nnc(-c2ccccc2O)cc1N1CC2CCC(C1)N2c1cccc(OCCN2CCN(CCC3CCN(c4ccc5c(c4)C(=O)N(C4CCC(=O)NC4=O)C5=O)CC3)CC2)c1 (racemic)", "DC50", 26],
  ["Nc1nnc(-c2ccccc2O)cc1N1CC2CCC(C1)N2c1cccc(OCCN2CCN(C(=O)N3CC4(C3)CN(c3ccc5c(c3)C(=O)N(C3CCC(=O)NC3=O)C5=O)C4)CC2)c1 (racemic)", "DC50", 16]
]}

---

# DC50 listing for each entry below
Biological target: SMARCA2 (Homo sapiens)
Construct: endogenous in cells; host or cells: HT1080 (CRISPR HiBiT knock-in clone, generated in house)
Assay: SMARCA2 HiBiT degradation assay (cellular)
Assay type: cell-based
Conditions: 6 h incubation; HiBiT-tagged SMARCA2, luminescence read-out; table head names A549; read-out: HiBit A549 SMARCA2 IP (nM) 6 h

{"columns": ["compound", "target_under_test", "DC50 (nM)"],
 "data": [
  ["Nc1nnc(-c2ccccc2O)cc1N1CCC(C(=O)N2CCC(C(=O)N3CCC(c4ccc(C5CCC(=O)NC5=O)cc4)CC3)CC2)(c2ccccc2)CC1 (stereo not drawn)", "SMARCA2 (Homo sapiens)", 42],
  ["Nc1nnc(-c2ccccc2O)cc1O[C@H]1CCCN(c2ccc(N3CCN(CCCCCCCCCn4cc(CNc5cccc6c5C(=O)N(C5CCC(=O)NC5=O)C6=O)nn4)CC3)cc2)C1 (mixture of isomers)", "SMARCA2 (Homo sapiens)", 144],
  ["Nc1nnc(-c2ccccc2O)cc1N1CCC(CNC(=O)CCCN2CCC(c3ccc(OC4CCC(=O)NC4=O)cc3)CC2)(c2ccccc2)CC1 (stereo not drawn)", "SMARCA2 (Homo sapiens)", 23],
  ["Nc1nnc(-c2ccccc2O)cc1N1CC2CCC(C1)N2c1cccc(OCCN2CCN(C(=O)N3CCN(c4ccc(OC5CCC(=O)NC5=O)cc4)CC3)CC2)c1 (racemic)", "SMARCA2 (Homo sapiens)", 86],
  ["Nc1nnc(-c2ccccc2O)cc1N1CC(Oc2cccc(CN3CCN(C(=O)CCCCCCNc4cccc5c4C(=O)N(C4CCC(=O)NC4=O)C5=O)CC3)c2)C1 (stereo not drawn)", "SMARCA2 (Homo sapiens)", 92],
  ["Nc1nnc(-c2ccccc2O)cc1N1CC2CCC(C1)N2c1cccc(OCCN2CCN(CC3CCN(c4ccc5c(c4)C(=O)N(C4CCC(=O)NC4=O)C5=O)CC3)CC2)c1 (racemic)", "SMARCA2 (Homo sapiens)", 20]
]}

---

Target: SMARCA2 (Homo sapiens)
Construct: endogenous in cells; host or cells: HT1080 (CRISPR HiBiT knock-in clone, generated in house)
Test: SMARCA2 HiBiT degradation assay (cellular)
Format: cell-based
Conditions: A549, 6 h incubation; Emax = amount of residual protein remaining in the cell following compound treatment; table head names A549
Catalogue of Emax values

{"columns": ["compound", "unit_symbol", "Emax"],
 "data": [
  ["Nc1nnc(-c2ccccc2O)cc1N1CCC(C(=O)NCC2CCN(CC3CCN(c4ccc5c(c4)C(=O)N(C4CCC(=O)NC4=O)C5=O)CC3)CC2)(c2ccccc2)C1 (stereo not shown) [Example 124]", "%", 63],
  ["Nc1nnc(-c2ccccc2O)cc1N1CCC(C(=O)N2CCC3(CC2)CN(C(=O)CN2CCC(c4ccc(NC5CCC(=O)NC5=O)cc4)CC2)CCO3)(c2ccccc2)CC1 (stereo not shown) [Example 169]", "%", 56],
  ["Nc1nnc(-c2ccccc2O)cc1N1CC2CCC(C1)N2c1cccc(OCCN2CCN(C(=O)CCCNC(=O)COc3cccc4c3C(=O)N(C3CCC(=O)NC3=O)C4=O)CC2)c1 (racemic) [Example 17]", "%", 64],
  ["CC(Oc1cccc2c1C(=O)N(C1CCC(=O)NC1=O)C2=O)c1cn(CCCCCCOCCN2CCN(c3ccc(N4CCC[C@H](Oc5cc(-c6ccccc6O)nnc5N)C4)cc3)CC2)nn1 (mixture of isomers) [Example 202]", "%", 44]
]}

---

Target: SMARCA2 (Homo sapiens, UniProt P51531)
Construct: endogenous in cells; host or cells: HT1080 (CRISPR HiBiT knock-in clone, generated in house)
Experiment: SMARCA2 HiBiT degradation assay (cellular)
Assay type: cell-based
Conditions: 6 h incubation; HiBiT-tagged SMARCA2, luminescence read-out; table head names A549; read-out: HiBit A549 SMARCA2 IP (nM) 6 h
measured_attribute: DC50 (nM)

{"columns": ["compound", "unit_symbol", "endpoint_result"],
 "data": [
  ["Nc1nnc(-c2ccccc2O)cc1N1CC2CCC(C1)N2c1cccc(CN2CCN(C(=O)C3CCN(c4ccc5c(c4)C(=O)N(C4CCC(=O)NC4=O)C5=O)CC3)CC2)c1 (racemic)", "nM", 12],
  ["Nc1nnc(-c2ccccc2O)cc1OC1CCCN(c2ccc(N3CCN(C(=O)CCCCCCCCCn4cc(CNc5cccc6c5C(=O)N(C5CCC(=O)NC5=O)C6=O)nn4)CC3)cc2)C1 (centres unmarked)", "nM", 91],
  ["Nc1nnc(-c2ccccc2O)cc1N1CC(Oc2cccc(CN3CCN(C(=O)CN4CCC(c5ccc(NC6CCC(=O)NC6=O)cc5)CC4)CC3)c2)C1 (racemic)", "nM", 3],
  ["Nc1nnc(-c2ccccc2O)cc1N1CC(Oc2ccc(CN3CCN(C(=O)CCCCCCNc4cccc5c4C(=O)N(C4CCC(=O)NC4=O)C5=O)CC3)cc2)C1 (centres unmarked)", "nM", 37],
  ["CC(Oc1cccc2c1C(=O)N(C1CCC(=O)NC1=O)C2=O)c1cn(C2CN(C(=O)CCCCN3CCN(c4ccc(N5CCC[C@H](Oc6cc(-c7ccccc7O)nnc6N)C5)cc4)CC3)C2)nn1 (mixture of isomers)", "nM", 107],
  ["Nc1nnc(-c2ccccc2O)cc1N1CCC(OCC(=O)NC2CCN(C(=O)CN3CCC(c4ccc(OC5CCC(=O)NC5=O)cc4)CC3)CC2)(c2ccccc2)CC1 (centres unmarked)", "nM", 67],
  ["Nc1nnc(-c2ccccc2O)cc1N1CCC(C(=O)N2CC3(CCN(C(=O)CN4CCC(c5ccc(NC6CCC(=O)NC6=O)cc5)CC4)CC3)C2)(c2ccccc2)CC1 (centres unmarked)", "nM", 28],
  ["Nc1nnc(-c2ccccc2O)cc1N1CCC(C(=O)N2CC3(CCN(C(=O)CC4CCN(c5ccc6c(c5)C(=O)N(C5CCC(=O)NC5=O)C6=O)CC4)C3)C2)(c2ccccc2)CC1 (centres unmarked)", "nM", 579],
  ["Nc1nnc(-c2ccccc2O)cc1N1CC2CCC(C1)N2c1cccc(OCCN2CCN(C(=O)CCC3CCN(c4cccc5c4C(=O)N(C4CCC(=O)NC4=O)C5=O)CC3)CC2)c1 (racemic)", "nM", 46],
  ["Nc1nnc(-c2ccccc2O)cc1N1CC2CCC(C1)N2c1cccc(CC2CCN(C(=O)CCC3CCN(c4ccc5c(c4)C(=O)N(C4CCC(=O)NC4=O)C5=O)CC3)CC2)c1 (racemic)", "nM", 129],
  ["Nc1nnc(-c2ccccc2O)cc1N1CC2CCC(C1)N2c1cccc(OCCN2CCN(C(=O)CCC(=O)N3CCN(Cc4cccc5c4C(=O)N(C4CCC(=O)NC4=O)C5=O)CC3)CC2)c1 (racemic)", "nM", 212],
  ["CC(Oc1cccc2c1C(=O)N(C1CCC(=O)NC1=O)C2=O)c1cn(CCC(=O)N2CCN(CCCN3CCN(c4ccc(N5CCC[C@H](Oc6cc(-c7ccccc7O)nnc6N)C5)cc4)CC3)CC2)nn1 (mixture of isomers)", "nM", 907],
  ["Nc1nnc(-c2ccccc2O)cc1N1CC2CCC(C1)N2c1cccc(OCCN2CCN(C(=O)N3CCC(Oc4ccc5c(c4)C(=O)N(C4CCC(=O)NC4=O)C5=O)CC3)CC2)c1 (racemic)", "nM", 22],
  ["Nc1nnc(-c2ccccc2O)cc1N1CC2CCC(C1)N2c1cccc(OCCN2CCN(C(=O)C3CC4(C3)CN(c3ccc5c(c3)C(=O)N(C3CCC(=O)NC3=O)C5=O)C4)CC2)c1 (racemic)", "nM", 100],
  ["Nc1nnc(-c2ccccc2O)cc1N1CC2CCC(C1)N2c1cccc(CN2CCN(C(=O)CN3CCC(c4ccc(NC5CCC(=O)NC5=O)cc4)CC3)CC2)c1 (racemic)", "nM", 18],
  ["Nc1nnc(-c2ccccc2O)cc1N1CCN(c2cccc(CN3CCN(C(=O)CCC4CCN(c5ccc6c(c5)C(=O)N(C5CCC(=O)NC5=O)C6=O)CC4)CC3)c2)C2(CC2)C1 (centres unmarked)", "nM", 18],
  ["Nc1nnc(-c2ccccc2O)cc1OC1CCCN(c2ccc(N3CCN(CCCCCCCCCn4cc(C5(Nc6cccc7c6C(=O)N(C6CCC(=O)NC6=O)C7=O)CC5)nn4)CC3)cc2)C1 (centres unmarked)", "nM", 103]
]}
